# Test system: replicons that contain HCV genotype-1a patient-derived NS3 protease domains in Lunet Huh7 cells
# assay_notes: Phenotypic replicon assay (transient replicon, firefly luciferase reporter), genotype-1a patient-derived NS3 protease
# Format: cell-based
# test_parameters: GT-1a patient sample RO-193; read-out: Mean IC50
test_readout: IC50 (nM)

# smiles_str, test_readout, assay_result
measured = [
    ("C[C@@]1(O)[C@H](O)[C@@H](CO)O[C@H]1n1ccc(N)nc1=O", "IC50", 640),
]

* * *

# System: replicons that contain HCV genotype-1a patient-derived NS3 protease domains in Lunet Huh7 cells
# assay_notes: Phenotypic replicon assay (transient replicon, firefly luciferase reporter), genotype-1a patient-derived NS3 protease
# Format: cell-based
# test_parameters: Hepatitis C virus, Huh-7, read-out: Mean IC50, GT-1a patient sample RO-207
pIC50: −log10 of the molar value.
# pIC50 per record follows
test_readout: pIC50

# smiles_str, assay_result
records = [
    ("CCC[C@H](NC(=O)[C@@H]1[C@H]2CCC[C@H]2CN1C(=O)[C@@H](NC(=O)[C@@H](NC(=O)c1cnccn1)C1CCCCC1)C(C)(C)C)C(=O)C(=O)NC1CC1", 10.08),
    ("COc1ccc2c(O[C@@H]3C[C@H]4C(=O)N[C@]5(C(=O)O)C[C@H]5/C=C\\CCCCC[C@H](NC(=O)OC5CCCC5)C(=O)N4C3)cc(-c3csc(NC(C)C)n3)nc2c1", 9.41),
]

* * *

# Test system: replicons that contain HCV genotype-1a patient-derived NS3 protease domains in Lunet Huh7 cells
# assay_notes: Phenotypic replicon assay (transient replicon, firefly luciferase reporter), genotype-1a patient-derived NS3 protease
# Type: cell-based
# test_parameters: Hepatitis C virus, Huh-7, read-out: Mean IC50, GT-1a patient sample RO-195
pIC50: −log10 of the molar value.

# compound, pIC50
measured = [
    ("CCC[C@H](NC(=O)[C@@H]1[C@H]2CCC[C@H]2CN1C(=O)[C@@H](NC(=O)[C@@H](NC(=O)c1cnccn1)C1CCCCC1)C(C)(C)C)C(=O)C(=O)NC1CC1 [VX-950]", 10.55),
    ("COc1ccc2c(O[C@@H]3C[C@H]4C(=O)N[C@]5(C(=O)O)C[C@H]5/C=C\\CCCCC[C@H](NC(=O)OC5CCCC5)C(=O)N4C3)cc(-c3csc(NC(C)C)n3)nc2c1 [BILN2061]", 9.20),
]

* * *

# System: replicons that contain HCV genotype-1a patient-derived NS3 protease domains in Lunet Huh7 cells
# assay_notes: Phenotypic replicon assay (transient replicon, firefly luciferase reporter), genotype-1a patient-derived NS3 protease
# Assay type: cell-based
# test_parameters: GT-1a patient sample RO-191; read-out: Mean IC50

# compound, IC50 (nM)
data = [
    ("C[C@@]1(O)[C@H](O)[C@@H](CO)O[C@H]1n1ccc(N)nc1=O [NM107]", 539),
]
